Taken from ChEMBL document CHEMBL1149771.

Kindly supply the reported inhibition zone (IZ) values for the records listed here.
System: Aspergillus fumigatus
Assay: Antifungal activity against Aspergillus fumigatus at 37 degC after 3 to 4 days by agar […] method
Type: functional
Answers are plain numbers, in mm.

# smilesEntry, reading
data = [
    ("Fc1cc(-c2cc(-c3nnc(COc4ccc(Cl)cc4Cl)o3)c3ccccc3n2)c(Cl)cc1Cl", 27),
    ("Cc1cc(OCc2nnc(-c3cc(-c4cc(F)c(Cl)cc4Cl)nc4ccccc34)o2)ccc1Cl", 15),
    ("Fc1cc(-c2nnc(COc3ccccc3Cl)o2)c(Cl)cc1Cl", 19),
    ("COC1=CC(=O)C[C@@H](C)[C@]12Oc1c(Cl)c(OC)cc(OC)c1C2=O", 27),
]

Consider now this further compound.
Q: So what does the record say about inhibition zone (IZ) for Cc1cc(OCc2nnc(-c3cc(F)c(Cl)cc3Cl)o2)ccc1Cl ?
Ans: 8

* * *

Tested on: Staphylococcus aureus
Assay: Antibacterial activity against Staphylococcus aureus ATCC 25923 at 37 degC after 24 hrs by broth dilution method
Type: functional
Settings: ATCC 25923, 24 h
Record form. Attribute: MIC. Fill in for each entry.
Numbers only, in µg/mL.

# smilesEntry, reading
rows = [
    ("Cc1ccccc1OCc1nnc(-c2cc(F)c(Cl)cc2Cl)o1", 6.25),
    ("Cc1ccc(OCc2nnc(-c3cc(-c4cc(F)c(Cl)cc4Cl)nc4ccccc34)o2)cc1", 12.5),
    ("Cc1cc(OCc2nnc(-c3cc(F)c(Cl)cc3Cl)o2)ccc1Cl", 25),
    ("Cc1cc(Cl)ccc1OCc1nnc(-c2cc(-c3cc(F)c(Cl)cc3Cl)nc3ccccc23)o1", 6.25),
    ("Cc1ccccc1OCc1nnc(-c2cc(-c3cc(F)c(Cl)cc3Cl)nc3ccccc23)o1", 12.5),
    ("Fc1cc(-c2nnc(COc3ccccc3Cl)o2)c(Cl)cc1Cl", 12.5),
    ("Fc1cc(-c2cc(-c3nnc(COc4ccc(Cl)cc4Cl)o3)c3ccccc3n2)c(Cl)cc1Cl", 6.25),
    ("Fc1cc(-c2cc(-c3nnc(COc4ccc(Cl)cc4)o3)c3ccccc3n2)c(Cl)cc1Cl", 6.25),
]

State the recorded MIC for every item in the following list.
1. Cc1ccc(OCc2nnc(-c3cc(F)c(Cl)cc3Cl)o2)cc1
2. Cc1cc(Cl)ccc1OCc1nnc(-c2cc(F)c(Cl)cc2Cl)o1

Ans:
[6.25, 6.25]

* * *

Test system: Candida albicans
Test: Antifungal activity against Candida albicans at 35 degC after 48 hrs
Format: functional
Assign MFC to each entry below.
Give bare numbers, in µg/mL.

// worked examples, MFC included
# smilesEntry, readoutName, reading
records = [
    ("Fc1cc(-c2cc(-c3nnc(COc4ccccc4Cl)o3)c3ccccc3n2)c(Cl)cc1Cl", "MFC", 12.5),
    ("Cc1ccccc1OCc1nnc(-c2cc(F)c(Cl)cc2Cl)o1", "MFC", 25),
    ("Cc1ccccc1OCc1nnc(-c2cc(-c3cc(F)c(Cl)cc3Cl)nc3ccccc23)o1", "MFC", 25),
]

List the reported MFC of each compound below.
1. COC1=CC(=O)C[C@@H](C)[C@]12Oc1c(Cl)c(OC)cc(OC)c1C2=O
2. Cc1ccc(OCc2nnc(-c3cc(F)c(Cl)cc3Cl)o2)cc1

Ans:
1. 12.5
2. 6.25

* * *

System: Aspergillus fumigatus
Assay: Antifungal activity against Aspergillus fumigatus at 37 degC after 3 to 4 days by agar […] method
Assay type: functional
Tick True if inhibition zone (IZ) is 20 mm or greater. Tick False if inhibition zone (IZ) is less than 20 mm.

# count of solved cases: 2
# smilesEntry, measurementTarget, categoryLabel
data = [
    ("Cc1ccc(OCc2nnc(-c3cc(F)c(Cl)cc3Cl)o2)cc1", "Aspergillus fumigatus", "True"),
    ("Cc1cc(Cl)ccc1OCc1nnc(-c2cc(-c3cc(F)c(Cl)cc3Cl)nc3ccccc23)o1", "Aspergillus fumigatus", "False"),
]

Q: Is inhibition zone (IZ) for Fc1cc(-c2cc(-c3nnc(COc4ccc(Cl)cc4)o3)c3ccccc3n2)c(Cl)cc1Cl at or above 20 mm?
Ans: False

Q: Same question for Cc1ccccc1OCc1nnc(-c2cc(F)c(Cl)cc2Cl)o1 please.
Ans: False

Q: Can you check Cc1cc(Cl)ccc1OCc1nnc(-c2cc(F)c(Cl)cc2Cl)o1 next?
Ans: True

* * *

System: Candida albicans
Experiment: Antifungal activity against Candida albicans at 35 degC after 48 hrs
Assay type: functional
readoutName: MFC (µg/mL)
Answers are plain numbers, in µg/mL.

# smilesEntry, measurementTarget, unitsOfMeasure, MFC
data = [
    ("Fc1cc(-c2nnc(COc3ccccc3Cl)o2)c(Cl)cc1Cl", "Candida albicans", "µg/mL", 50),
    ("Fc1cc(-c2cc(-c3nnc(COc4ccc(Cl)cc4)o3)c3ccccc3n2)c(Cl)cc1Cl", "Candida albicans", "µg/mL", 50),
    ("Cc1cc(Cl)ccc1OCc1nnc(-c2cc(F)c(Cl)cc2Cl)o1", "Candida albicans", "µg/mL", 6.25),
]

Then this compound:
Q: Fill in: MFC of Fc1cc(-c2cc(-c3nnc(COc4ccc(Cl)cc4Cl)o3)c3ccccc3n2)c(Cl)cc1Cl is ___
Ans: 6.25

* * *

Can you tell me MFC for the items I'm about to list?
System: Talaromyces marneffei
Experiment: Antifungal activity against Penicillium marneffei at 35 degC after 48 hrs
Format: functional
One number for each entry, in µg/mL.

# smilesEntry, MFC (µg/mL)
rows = [
    ("Cc1ccccc1OCc1nnc(-c2cc(F)c(Cl)cc2Cl)o1", 100),
]

Now for another entry.
Q: Param item = Cc1cc(Cl)ccc1OCc1nnc(-c2cc(F)c(Cl)cc2Cl)o1 ; retrieve measured MFC.
Ans: 6.25

* * *

Test system: Talaromyces marneffei
Assay: Antifungal activity against Penicillium marneffei at 35 degC after 48 hrs by broth dilution method
Assay type: functional
readoutName: MIC (µg/mL)
Give bare numbers, in µg/mL.

# smilesEntry, unitsOfMeasure, MIC
data = [
    ("Cc1cc(Cl)ccc1OCc1nnc(-c2cc(F)c(Cl)cc2Cl)o1", "µg/mL", 6.25),
]

Next, consider the following compound.
Q: // query MIC value for entry Cc1ccc(OCc2nnc(-c3cc(-c4cc(F)c(Cl)cc4Cl)nc4ccccc34)o2)cc1
Ans: 12.5

* * *

Test system: Pseudomonas aeruginosa
Assay: Antibacterial activity against Pseudomonas aeruginosa ATCC 27853 at 35 degC after 18 to 24 hrs
Type: functional
readoutName: MBC (µg/mL)
Answers are plain numbers, in µg/mL.

# smilesEntry, MBC, µg/mL
records = [
    ("Fc1cc(-c2cc(-c3nnc(COc4ccccc4Cl)o3)c3ccccc3n2)c(Cl)cc1Cl", 50),
]

Now for a further compound.
Q: Look up MBC: O=C(O)c1cn(C2CC2)c2cc(N3CCNCC3)c(F)cc2c1=O
Ans: 12.5

* * *

System: Pseudomonas aeruginosa
Experiment: Antibacterial activity against Pseudomonas aeruginosa ATCC 27853 at 37 degC after 24 hrs by broth dilution method
Type: functional
Details: ATCC 27853, 24 h
readoutName: MIC (µg/mL)
Numbers only, in µg/mL.

Solved entries:
# smilesEntry, MIC / µg/mL
records = [
    ("Cc1ccc(OCc2nnc(-c3cc(F)c(Cl)cc3Cl)o2)cc1", 6.25),
    ("Fc1cc(-c2cc(-c3nnc(COc4ccc(Cl)cc4)o3)c3ccccc3n2)c(Cl)cc1Cl", 6.25),
]

Count: 8. Required value per item: MIC.
1. Cc1cc(Cl)ccc1OCc1nnc(-c2cc(-c3cc(F)c(Cl)cc3Cl)nc3ccccc23)o1
2. Cc1cc(Cl)ccc1OCc1nnc(-c2cc(F)c(Cl)cc2Cl)o1
3. Fc1cc(-c2cc(-c3nnc(COc4ccc(Cl)cc4Cl)o3)c3ccccc3n2)c(Cl)cc1Cl
4. Cc1ccc(OCc2nnc(-c3cc(-c4cc(F)c(Cl)cc4Cl)nc4ccccc34)o2)cc1
5. Fc1cc(-c2nnc(COc3ccccc3Cl)o2)c(Cl)cc1Cl
6. Cc1cc(OCc2nnc(-c3cc(-c4cc(F)c(Cl)cc4Cl)nc4ccccc34)o2)ccc1Cl
7. Fc1cc(-c2cc(-c3nnc(COc4ccccc4Cl)o3)c3ccccc3n2)c(Cl)cc1Cl
8. Cc1ccccc1OCc1nnc(-c2cc(F)c(Cl)cc2Cl)o1

Ans:
12.5
6.25
6.25
25
12.5
6.25
25
6.25

* * *

Please provide measured MFC for the entries that follow.
Test system: Talaromyces marneffei
Assay: Antifungal activity against Penicillium marneffei at 35 degC after 48 hrs
Assay type: functional
Numbers only, in µg/mL.

I have 2 molecules here; please give me MFC for each one.
1. COC1=CC(=O)C[C@@H](C)[C@]12Oc1c(Cl)c(OC)cc(OC)c1C2=O
2. Cc1cc(OCc2nnc(-c3cc(-c4cc(F)c(Cl)cc4Cl)nc4ccccc34)o2)ccc1Cl

Ans:
[12.5, 50]
